Target: T1, factor IXaR333Q (factor IXa point mutant in which Arg333 is replaced by Gln) (human, UniProt P00740 47-190; P00740 227-461, gamma-carboxyglutamic acid residues in the Gla domain (normal Gla content))
T1 construct: R333 is c165 in chymotrypsin numbering; also called IXR333Q
T1 sequence (P00740 47-190, change not shown, form in doubt, chain 1 of 2): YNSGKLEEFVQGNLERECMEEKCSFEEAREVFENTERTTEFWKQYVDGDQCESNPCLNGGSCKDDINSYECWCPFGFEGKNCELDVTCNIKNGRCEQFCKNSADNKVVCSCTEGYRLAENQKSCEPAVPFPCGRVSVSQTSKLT
T1 sequence (P00740 other isoform, or with tags, fused parts or gaps mutant, form in doubt, chain 2 of 2): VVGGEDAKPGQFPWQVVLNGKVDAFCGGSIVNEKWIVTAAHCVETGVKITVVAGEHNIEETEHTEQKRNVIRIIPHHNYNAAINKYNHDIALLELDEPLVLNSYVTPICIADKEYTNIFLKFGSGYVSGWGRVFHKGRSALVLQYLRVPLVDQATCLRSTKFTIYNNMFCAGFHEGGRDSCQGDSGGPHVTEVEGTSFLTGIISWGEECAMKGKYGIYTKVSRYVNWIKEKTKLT
Assay: peptide inhibition of IXaR333Q:A2 interaction; 300 nM IXa, 30 nM A2, 250 nM factor X; factor Xa generation (FIG. 5)
PARAMETER MEASURED: IC50

Given SVDQRGNQ [synthetic peptide corresponding to the A2 subunit residues 558-565 (Ser-Val-Asp-Gln-Arg-Gly-Asn-Gln)] , state its recorded IC50.
~70 µM

Provenance of the data: patent US20040126856A1
